Molecular target: EBP-Ig (N-terminal 225 amino acids of the human EPO receptor joined to an Ig heavy chain) (Homo sapiens, UniProt P19235)
Construct: Ig heavy chain (fusion partner); made in house; host or cells: NSO cells (secreted into conditioned media)
Sequence (P19235 25-250 limits assumed): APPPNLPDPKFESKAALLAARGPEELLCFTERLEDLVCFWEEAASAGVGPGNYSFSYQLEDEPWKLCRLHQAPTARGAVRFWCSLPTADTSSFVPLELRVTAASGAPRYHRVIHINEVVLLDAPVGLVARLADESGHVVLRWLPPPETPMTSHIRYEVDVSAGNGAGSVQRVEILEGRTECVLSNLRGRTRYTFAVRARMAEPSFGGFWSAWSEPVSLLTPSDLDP
Experiment: Inhibition of [125I]EPO binding to immobilized EBP-Ig (EPO binding protein-Ig), scintillation Flash plate competition assay
Conditions: 50 μM test compound; 0.5 nM [125I]EPO; average % inhibition
// reported % inh @ 50 μM (Inhibition of EPO binding to EBP-Ig) for each item listed
experimental_endpoint: % inh @ 50 μM (Inhibition of EPO binding to EBP-Ig) (%)

compound: CC(=O)O.COC(=O)c1cccc(C=CCNC(CSCc2ccccc2)C(=O)OC)c1 (stereo not shown) [compound 368]
units_label: %
result_number: 40
--
compound: CC(C)(CC(=O)O)CC(=O)NCCCCC(C(=O)NCCCCCCCCCCCCNC(=O)C(CCCCNC(=O)CC(C)(C)CC(=O)O)N(Cc1ccc(OCc2ccccc2)cc1)Cc1ccc(OCc2ccccc2)cc1)N(Cc1ccc(OCc2ccccc2)cc1)Cc1ccc(OCc2ccccc2)cc1 (stereo not shown) [compound 268]
units_label: %
result_number: 40
--
compound: NCCCCC(C(=O)NCCOCCOCCNC(=O)C(CCCCN)N(Cc1ccc(OCc2ccccc2)cc1)Cc1ccc(OCc2ccccc2)cc1)N(Cc1ccc(OCc2ccccc2)cc1)Cc1ccc(OCc2ccccc2)cc1 (stereo not shown) [compound 261]
units_label: %
result_number: 51
--
compound: COc1ccc(CCNC(=O)C(CCCCN)N(C/C=C/c2ccc(-c3ccccc3)cc2)C/C=C/c2ccc(-c3ccccc3)cc2)cc1 (stereo not shown) [compound 238]
units_label: %
result_number: 39
